- Tested Target: T1, human TL1A extracellular domain with N-terminal HIS and FLAG tag (human, UniProt O95150 72-251)
- T1 construct: the whole entry is named
- T1 sequence: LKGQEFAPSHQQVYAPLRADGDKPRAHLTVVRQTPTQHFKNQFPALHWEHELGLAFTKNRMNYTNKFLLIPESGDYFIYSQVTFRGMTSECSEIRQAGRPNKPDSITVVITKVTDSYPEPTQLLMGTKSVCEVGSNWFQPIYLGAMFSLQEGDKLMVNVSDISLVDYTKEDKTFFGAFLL
- Procedure Summary: SPR Run 5, Ab from supernatant captured on Protein A, TL1A 5 ug/mL, timepoint 220
Measured Quantity: TL1A Binding Level (Late) (RU)

Binder | Measured Quantity | Readout Number
320-382 (antibody, human IgG1, name in Kabat numbering, V domains shown, human IgG1, lambda) VH: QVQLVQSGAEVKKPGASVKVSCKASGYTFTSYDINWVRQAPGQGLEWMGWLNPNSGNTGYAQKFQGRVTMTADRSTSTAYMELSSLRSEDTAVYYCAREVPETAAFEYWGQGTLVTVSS VL: QSVLTQPPSVSGAPGQRVTISCTSSSSDIGAGLGVHWYQQLPGTAPKLLIEGYYNRPSGVPDRFSGSKSGTSASLTITGLLPEDEGDYYCQSYDGTLSAQFGGGTKLTVLG | TL1A Binding Level (Late) | 0
320-407 (antibody, human IgG1, name in Kabat numbering, V domains shown, human IgG1, lambda) VH: QVQLVQSGAEVKKPGASVKVSCKASGYDFTSYDINWVRQAPGQGLEWMGWLNPNSGNTGYAQKFQGRVTMTADRSTSTAYMELSSLRSEDTAVYYCAREVPETAAFEYWGQGTLVTVSS VL: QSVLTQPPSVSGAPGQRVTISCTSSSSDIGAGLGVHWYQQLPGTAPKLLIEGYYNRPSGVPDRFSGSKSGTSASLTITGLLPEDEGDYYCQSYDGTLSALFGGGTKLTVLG | TL1A Binding Level (Late) | 11

Cited source: patent US20170081400A1
